Tested on: U2OS
Assay: Multiplex assay against U2OS
Assay type: toxicity, cell-based
Settings: human, 48 h, 10 µM, compound concentration 10 uM, replicate 1
Exercise: state measured Population Apoptotic (%) for each of the compounds provided.
Kindly answer with a numeric value in %, unit omitted.

The reported value for CC[C@H]1OC(=O)[C@H](C)[C@@H](O[C@H]2C[C@@](C)(OC)[C@@H](O)[C@H](C)O2)[C@H](C)[C@@H](O[C@@H]2O[C@H](C)C[C@H](N(C)C)[C@H]2O)[C@@]2(C)CC(C)=C(O2)[C@H](C)[C@@H](O)[C@]1(C)O in terms of Population Apoptotic (%) is 85

The reported value for CSCC[C@H](NC=O)C(=O)N[C@@H](CC(C)C)C(=O)N[C@@H](Cc1ccccc1)C(=O)O in terms of Population Apoptotic (%) is 90

The reported value for Cc1ccccc1C(=O)Nc1ccc(C(=O)N2CCCC(N(C)C)c3ccccc32)cc1.Cl (stereo not drawn) in terms of Population Apoptotic (%) is 71

* * *

System: Fibroblast
Test: Multiplex assay against human fibroblast
Assay type: toxicity, cell-based
Details: 12 h, 10 µM, compound concentration 10 uM, replicate 1
Each entry gets 0 if its Total Cell Count stays under 200, and 1 if its Total Cell Count is 200 or above.

Exercise: Is Total Cell Count at least 200? Consider Cc1nc2ccc(Oc3ccc(F)cc3)cc2c(=O)n1C[C@H]1CCCN(C(C)C)C1.Cl
Key: 1

Exercise: Is Total Cell Count at least 200? Consider CN(C)CCCc1cc(C(=O)Nc2ccc(-c3ccncc3)cc2)ccc1O.Cl.Cl
Key: 1

Exercise: Is Total Cell Count at least 200? Consider C[C@H](NC(=O)c1c(C(F)F)nn(C)c1Oc1cccc(C(F)(F)F)c1)c1ccc(C(=O)O)cc1
Key: 0

Exercise: Is Total Cell Count at least 200? Consider COc1ccc2c(c1)C(C(=O)N(Cc1ccc(N(C)C)cc1)c1ccc(C(C)C)cc1)CCC2.Cl (stereo not drawn)
Key: 0

Exercise: Is Total Cell Count at least 200? Consider CCCN1CCC[C@@H]2Cc3n[nH]cc3C[C@H]21.Cl [QUINPIROLE HYDROCHLORIDE]
Key: 0

Exercise: Is Total Cell Count at least 200? Consider O=C(O)c1cc2ccccc2c(Cc2c(O)c(C(=O)O)cc3ccccc23)c1O
Key: 0

Exercise: Is Total Cell Count at least 200? Consider CC(C)(C)c1ccc(S(=O)(=O)Nc2ccc(Cl)cc2C(=O)c2cc[n+]([O-])cc2)cc1
Key: 0

* * *

Exercise: state measured Population Fragmented Nuclei (%) for each of the molecules provided.
Test system: HEK-293T
Assay: Multiplex assay against HEK293T
Assay type: toxicity, cell-based
Conditions: human, 12 h, 1 µM, compound concentration 1 uM, replicate 2

The reported value for CCCn1c(=O)c2[nH]c(C3CCCC3)nc2n(CCC)c1=O in terms of Population Fragmented Nuclei (%) is 3%

The reported value for CCCN1CCC[C@@H]2Cc3n[nH]cc3C[C@H]21.Cl [QUINPIROLE HYDROCHLORIDE] in terms of Population Fragmented Nuclei (%) is 4%

The reported value for COc1cc(NC(=O)CCN2CCC(OC(=O)Nc3ccccc3-c3ccccc3)CC2)c(Cl)cc1CNC[C@H](O)c1ccc(O)c2[nH]c(=O)ccc12 [BATEFENTEROL] in terms of Population Fragmented Nuclei (%) is 3%

The reported value for Cc1nc2ccc(Oc3ccc(F)cc3)cc2c(=O)n1C[C@H]1CCCN(C(C)C)C1.Cl in terms of Population Fragmented Nuclei (%) is 5%

The reported value for CC(=O)NCCc1c(Cc2ccccc2)[nH]c2ccccc12 [LUZINDOLE] in terms of Population Fragmented Nuclei (%) is 5%

The reported value for Cl.Clc1ccc2nsnc2c1NC1=NCCN1 [TIZANIDINE HYDROCHLORIDE] in terms of Population Fragmented Nuclei (%) is 2%

The reported value for Cc1ccccc1C(=O)Nc1ccc(C(=O)N2CCCC(N(C)C)c3ccccc32)cc1.Cl (centres undefined) in terms of Population Fragmented Nuclei (%) is 5%

The reported value for COc1ccc2c(c1)C(C(=O)N(Cc1ccc(N(C)C)cc1)c1ccc(C(C)C)cc1)CCC2.Cl (centres undefined) in terms of Population Fragmented Nuclei (%) is 5%

The reported value for Cc1ccc(C(C)(O)c2nc3ccccc3s2)c(C)c1 (centres undefined) in terms of Population Fragmented Nuclei (%) is 4%

* * *

Test system: HEK-293T
Assay: Multiplex assay against HEK293T
Format: toxicity, cell-based
Settings: human, 12 h, 10 µM, compound concentration 10 uM, replicate 2
Could you please mark criterion met for values of Population Fragmented Nuclei (%) below 5% and criterion not met for values at or above it?

Exercise: Does the reported Population Fragmented Nuclei (%) of the following compound sit strictly below 5%? O=C1COc2nccc(-c3ccccc3F)c2CN1Cc1cc(C(F)(F)F)cc(C(F)(F)F)c1
Key: criterion not met

Exercise: Does the reported Population Fragmented Nuclei (%) of the following compound sit strictly below 5%? Oc1c(CN2CCN(c3ccccn3)CC2)cc(Cl)c2cccnc12
Key: criterion not met

Exercise: Does the reported Population Fragmented Nuclei (%) of the following compound sit strictly below 5%? CCOc1c2c(c(OCC)c3ncccc13)CN(c1ccc(CS(=O)(=O)NC(=O)Cc3ccccc3OC)cc1C)C2=O
Key: criterion not met

Exercise: Does the reported Population Fragmented Nuclei (%) of the following compound sit strictly below 5%? Cc1ccc(-c2ccc(F)cc2COc2ccc(CCC(=O)O)cc2)cc1
Key: criterion not met

Exercise: Does the reported Population Fragmented Nuclei (%) of the following compound sit strictly below 5%? O=C(O)c1cc2ccccc2c(Cc2c(O)c(C(=O)O)cc3ccccc23)c1O
Key: criterion met

Exercise: Does the reported Population Fragmented Nuclei (%) of the following compound sit strictly below 5%? CC(C)(C)c1ccc(S(=O)(=O)Nc2ccc(Cl)cc2C(=O)c2cc[n+]([O-])cc2)cc1
Key: criterion met

Exercise: Does the reported Population Fragmented Nuclei (%) of the following compound sit strictly below 5%? Cc1ccc(C(C)(O)c2nc3ccccc3s2)c(C)c1 (centres undefined)
Key: criterion not met

Exercise: Does the reported Population Fragmented Nuclei (%) of the following compound sit strictly below 5%? CN(C)CCCc1cc(C(=O)Nc2ccc(-c3ccncc3)cc2)ccc1O.Cl.Cl
Key: criterion not met

Exercise: Does the reported Population Fragmented Nuclei (%) of the following compound sit strictly below 5%? Cl.Clc1ccc2nsnc2c1NC1=NCCN1 [TIZANIDINE HYDROCHLORIDE]
Key: criterion not met

Exercise: Does the reported Population Fragmented Nuclei (%) of the following compound sit strictly below 5%? CC1(COc2ccc3c(c2)ncn3-c2ccc3cccc(N4CCC(N)CC4)c3n2)COC1
Key: criterion not met

Exercise: Does the reported Population Fragmented Nuclei (%) of the following compound sit strictly below 5%? O=S(=O)(c1ccccc1)c1cnc2c(N3CCNCC3)cccc2c1 [INTEPIRDINE]
Key: criterion met

Exercise: Does the reported Population Fragmented Nuclei (%) of the following compound sit strictly below 5%? COc1cc(C(=O)N(CCCc2ccccc2)Cc2ccc(CC(=O)O)cc2)cc(OC)c1C
Key: criterion met

Exercise: Does the reported Population Fragmented Nuclei (%) of the following compound sit strictly below 5%? CN(C)c1ccnc2sc3c(=O)n(N4CCCCCC4)cnc3c12
Key: criterion not met

Exercise: Does the reported Population Fragmented Nuclei (%) of the following compound sit strictly below 5%? CCNC1(C(N)=O)CCN(c2ncnc3c2nc(-c2ccccc2Cl)n3-c2ccc(Cl)cc2)CC1
Key: criterion met

* * *

System: Fibroblast
Assay: Multiplex assay against human fibroblast
Format: toxicity, cell-based
Settings: 24 h, 1 µM, compound concentration 1 uM, replicate 1
Exercise: state measured Population Pyknosed Nuclei (%) for each of the compounds provided.
Kindly answer with a numeric value in %, unit omitted.

The reported value for COc1cc(NC(=O)CCN2CCC(OC(=O)Nc3ccccc3-c3ccccc3)CC2)c(Cl)cc1CNC[C@H](O)c1ccc(O)c2[nH]c(=O)ccc12 in terms of Population Pyknosed Nuclei (%) is 15

The reported value for CNC[C@H](O)c1ccc(O)c(O)c1 [EPINEPHRINE] in terms of Population Pyknosed Nuclei (%) is 16

The reported value for CSc1ccccc1N1CCN(CCCCCC(=O)NC2CCCc3ccccc32)CC1.Cl (centres undefined) in terms of Population Pyknosed Nuclei (%) is 18

The reported value for Cc1ccc(C(C)(O)c2nc3ccccc3s2)c(C)c1 (centres undefined) in terms of Population Pyknosed Nuclei (%) is 13

* * *

Test system: U2OS
Assay: Multiplex assay against U2OS
Type: toxicity, cell-based
Conditions: human, 24 h, 1 µM, compound concentration 1 uM, replicate 2
Exercise: state measured Population Apoptotic (%) for each of the compounds provided.
Kindly answer with a numeric value in %, unit omitted.

The reported value for CC(=O)NCCc1c(Cc2ccccc2)[nH]c2ccccc12 in terms of Population Apoptotic (%) is 88

The reported value for Cc1ccc(F)cc1C(=O)Nc1ccc(C(=O)N2Cc3cccn3Cc3ccccc32)c(Cl)c1 in terms of Population Apoptotic (%) is 57

The reported value for CC1(COc2ccc3c(c2)ncn3-c2ccc3cccc(N4CCC(N)CC4)c3n2)COC1 in terms of Population Apoptotic (%) is 54

The reported value for CC[C@H]1OC(=O)[C@H](C)[C@@H](O[C@H]2C[C@@](C)(OC)[C@@H](O)[C@H](C)O2)[C@H](C)[C@@H](O[C@@H]2O[C@H](C)C[C@H](N(C)C)[C@H]2O)[C@@]2(C)CC(C)=C(O2)[C@H](C)[C@@H](O)[C@]1(C)O in terms of Population Apoptotic (%) is 72

The reported value for Cc1ccccc1C(=O)Nc1ccc(C(=O)N2CCCC(N(C)C)c3ccccc32)cc1.Cl (stereo not drawn) in terms of Population Apoptotic (%) is 66

The reported value for O=C(O)Cc1ccccc1Nc1c(Cl)cccc1Cl in terms of Population Apoptotic (%) is 87

The reported value for CC(C)(C)c1ccc(S(=O)(=O)Nc2ccc(Cl)cc2C(=O)c2cc[n+]([O-])cc2)cc1 in terms of Population Apoptotic (%) is 92

The reported value for Cc1nc2ccc(Oc3ccc(F)cc3)cc2c(=O)n1C[C@H]1CCCN(C(C)C)C1.Cl in terms of Population Apoptotic (%) is 80
